Target: HLA-A*01:01
Assay: IEDB peptide-MHC binding, purified MHC/direct/fluorescence; filed as Kd, often an IC50 or EC50 that approximates it; bounds were set here for any values at or beyond the usual limits of such assays
Settings: source organism: Mammarenavirus juninense
pKd: −log10 of the molar value.
Property Label: pKd

Sequence Content	Readout Value
HTEFQTVSF	5.64

* * *

Molecular target: HLA-B*15:01
Experiment: IEDB peptide-MHC binding, purified MHC/competitive/fluorescence; filed as Kd, often an IC50 or EC50 that approximates it; bounds were set here for any values at or beyond the usual limits of such assays
Conditions: source organism: Bacillus anthracis str. A0389
pKd: −log10 of the molar value.
Property Label: pKd

Sequence Content	Readout Value
FTDNNELEF	≤ 4.70

* * *

Target: HLA-A*29:02
Assay: IEDB peptide-MHC binding, purified MHC/competitive/fluorescence; filed as Kd, often an IC50 or EC50 that approximates it; bounds were set here for any values at or beyond the usual limits of such assays
Details: source organism: Giardia lamblia ATCC 50803
pKd: −log10 of the molar value.

Sequence Content	pKd
PPIPIWLLF	6.71

* * *

Biological target: HLA-B*58:01
Test: IEDB peptide-MHC binding, purified MHC/direct/fluorescence; filed as Kd, often an IC50 or EC50 that approximates it; bounds were set here for any values at or beyond the usual limits of such assays
Conditions: source organism: Lyssavirus rabies

Sequence Content	Assay Target	Kd
RQMKSGGRF	HLA-B*58:01	≥ 20 µM

* * *

Biological target: HLA-A*11:01
Experiment: IEDB peptide-MHC binding, purified MHC/competitive/fluorescence; filed as Kd, often an IC50 or EC50 that approximates it; bounds were set here for any values at or beyond the usual limits of such assays
Conditions: source organism: Yersinia pestis Nepal516
Property Label: Kd (nM)

Sequence Content	Assay Target	Readout Value
RTLASGLIY	HLA-A*11:01	67.3

* * *

Biological target: HLA-B*08:01
Assay: IEDB peptide-MHC binding, purified MHC/direct/fluorescence; filed as Kd, often an IC50 or EC50 that approximates it; bounds were set here for any values at or beyond the usual limits of such assays
Conditions: source organism: West Nile virus
Property Label: Kd (nM)

Sequence Content	Property Label	Value Units	Readout Value
WLHRGPKEF	Kd	nM	2510

* * *

Target: HLA-B*07:02
Test: IEDB peptide-MHC binding, purified MHC/direct/fluorescence; filed as Kd, often an IC50 or EC50 that approximates it; bounds were set here for any values at or beyond the usual limits of such assays
Settings: source organism: Vibrio parahaemolyticus

Sequence Content	Kd
VQGYERIMY	≥ 20 µM

* * *

Target: HLA-A*31:01
Assay: IEDB peptide-MHC binding, purified MHC/direct/fluorescence; filed as Kd, often an IC50 or EC50 that approximates it; bounds were set here for any values at or beyond the usual limits of such assays
Details: source organism: Influenza A virus (A/equine/New York/1/1999(H3N8))
Property Label: Kd

Sequence Content	Assay Target	Readout Value
ELVRKTRFL	HLA-A*31:01	≥ 20 µM

* * *

Biological target: HLA-B*15:01
Experiment: IEDB peptide-MHC binding, purified MHC/direct/fluorescence; filed as Kd, often an IC50 or EC50 that approximates it; bounds were set here for any values at or beyond the usual limits of such assays
Settings: source organism: Lyssavirus rabies
pKd: −log10 of the molar value.

Sequence Content	pKd
RQMKSGGRF	6.93

* * *

Target: HLA-A*68:02
Test: IEDB peptide-MHC binding, purified MHC/competitive/radioactivity; filed as Kd, often an IC50 or EC50 that approximates it; bounds were set here for any values at or beyond the usual limits of such assays
Conditions: source organism: Trypanosoma cruzi
pKd: −log10 of the molar value.

Sequence Content	pKd
DTMRPTTVV	8.86

* * *

Target: HLA-A*30:02
Assay: IEDB peptide-MHC binding, purified MHC/competitive/radioactivity; filed as Kd, often an IC50 or EC50 that approximates it; bounds were set here for any values at or beyond the usual limits of such assays
Details: source organism: Mammarenavirus guanaritoense
pKd: −log10 of the molar value.

Sequence Content	Censoring Operator	pKd
YSEESPTEY	≤	4.11
TTDFTRLRY	=	6.26
SWDNTSVDLY	=	6.83

* * *

Molecular target: HLA-B*57:01
Assay: IEDB peptide-MHC binding, purified MHC/direct/fluorescence; filed as Kd, often an IC50 or EC50 that approximates it; bounds were set here for any values at or beyond the usual limits of such assays
Settings: source organism: Entamoeba histolytica
pKd: −log10 of the molar value.

Sequence Content	pKd
DFGYATMAK	≤ 4.70

* * *

Molecular target: HLA-A*02:12
Assay: IEDB peptide-MHC binding, purified MHC/direct/fluorescence; filed as Kd, often an IC50 or EC50 that approximates it; bounds were set here for any values at or beyond the usual limits of such assays
Conditions: source organism: Rickettsia bellii OSU 85-389
Property Label: Kd

Sequence Content	Assay Target	Readout Value
EDFEIFYNL	HLA-A*02:12	≥ 20 µM

* * *

Biological target: HLA-A*02:19
Assay: IEDB peptide-MHC binding, purified MHC/direct/fluorescence; filed as Kd, often an IC50 or EC50 that approximates it; bounds were set here for any values at or beyond the usual limits of such assays
Conditions: source organism: Encephalitozoon cuniculi GB-M1
pKd: −log10 of the molar value.

Sequence Content	Assay Target	pKd
MPFDPSELV	HLA-A*02:19	≤ 4.70

* * *

Target: HLA-A*24:03
Test: IEDB peptide-MHC binding, purified MHC/direct/fluorescence; filed as Kd, often an IC50 or EC50 that approximates it; bounds were set here for any values at or beyond the usual limits of such assays
Conditions: source organism: Vibrio cholerae
Property Label: Kd

Sequence Content	Assay Target	Readout Value
ALYWALMES	HLA-A*24:03	≥ 20 µM

* * *

Biological target: HLA-A*30:02
Assay: IEDB peptide-MHC binding, purified MHC/competitive/radioactivity; filed as Kd, often an IC50 or EC50 that approximates it; bounds were set here for any values at or beyond the usual limits of such assays
Settings: source organism: Lymphocytic choriomeningitis virus (strain WE)

Sequence Content	Kd / nM
LTDNDDILM	587

* * *

Target: HLA-B*53:01
Assay: IEDB peptide-MHC binding, purified MHC/competitive/radioactivity; filed as Kd, often an IC50 or EC50 that approximates it; bounds were set here for any values at or beyond the usual limits of such assays
Settings: source organism: Dengue virus 1 Singapore/S275/1990

Sequence Content	Assay Target	Kd [nM]
LSIPATLFVW	HLA-B*53:01	92.8

* * *

Molecular target: HLA-A*11:01
Assay: IEDB peptide-MHC binding, purified MHC/competitive/fluorescence; bounds were set here for any values at or beyond the usual limits of such assays
Settings: source organism: Vaccinia virus Copenhagen

Sequence Content	Assay Target	IC50 / µM
DRSDGYFLK	HLA-A*11:01	31.8

* * *

Biological target: HLA-A*11:01
Test: IEDB peptide-MHC binding, purified MHC/direct/fluorescence; filed as Kd, often an IC50 or EC50 that approximates it; bounds were set here for any values at or beyond the usual limits of such assays
Conditions: source organism: Influenza A virus (A/Hong Kong/507/97(H5N1))
pKd: −log10 of the molar value.

Sequence Content	pKd
LAKSVFNSL	≤ 4.70

* * *

Target: HLA-B*51:01
Test: IEDB peptide-MHC binding, purified MHC/competitive/fluorescence; filed as Kd, often an IC50 or EC50 that approximates it; bounds were set here for any values at or beyond the usual limits of such assays
Conditions: source organism: Shigella boydii CDC 3083-94
pKd: −log10 of the molar value.
Property Label: pKd

Sequence Content	Property Label	Readout Value
RNNDPTLPY	pKd	≤ 4.70

* * *

Target: HLA-A*30:02
Test: IEDB peptide-MHC binding, purified MHC/competitive/radioactivity; filed as Kd, often an IC50 or EC50 that approximates it; bounds were set here for any values at or beyond the usual limits of such assays
Details: source organism: Mammarenavirus lassaense
pKd: −log10 of the molar value.
Below, each entry is listed with its recorded pKd.

Sequence Content	Censoring Operator	pKd
VDINLIPLI	≤	4.11
SLNITTLRAV	=	5.77

* * *

Biological target: HLA-B*18:01
Experiment: IEDB peptide-MHC binding, purified MHC/direct/fluorescence; filed as Kd, often an IC50 or EC50 that approximates it; bounds were set here for any values at or beyond the usual limits of such assays
Conditions: source organism: Burkholderia mallei ATCC 23344
Property Label: Kd (nM)

Sequence Content	Property Label	Readout Value
WWLEYTASF	Kd	68

* * *

Molecular target: HLA-A*33:01
Test: IEDB peptide-MHC binding, purified MHC/competitive/radioactivity; filed as Kd, often an IC50 or EC50 that approximates it; bounds were set here for any values at or beyond the usual limits of such assays
Conditions: source organism: Lymphocytic choriomeningitis virus (strain Armstrong)

Sequence Content	Assay Target	Kd
IVTMFEALPH	HLA-A*33:01	0.0751 µM
VCLALTNSMK	HLA-A*33:01	≥ 66.8 µM
SCQGSDDIRK	HLA-A*33:01	≥ 70 µM

// data source = the Immune Epitope Database (IEDB)
